Each entry below carries its recorded TGI.
- Tested on: NCI-H23 lung
- ASSAY NOTES: NCI tumour cell line growth inhibition, 48 h
ASSAY METRIC: TGI

{"columns": ["MOLECULE", "TESTED ON", "ASSAY METRIC", "RECORDED MEASUREMENT"],
 "data": [
  ["CCCSCC(P(=O)(O)O)P(=O)(O)O", "NCI-H23 lung", "TGI", "> 100 µM"],
  ["CCCCC(C(=O)NCCNC(=O)CCC(=O)N(C)O)C(=O)NCCNC(=O)CCC(=O)N(C)O", "NCI-H23 lung", "TGI", "> 100 µM"],
  ["O=C(/C=C/c1ccc2c(c1)OCO2)CC(=O)C(=O)c1c[nH]c2ccccc12", "NCI-H23 lung", "TGI", "> 100 µM"],
  ["CC(=O)OC1=CC(n2cc(F)c(=O)[nH]c2=O)OC(C)C1=O (stereo unspecified)", "NCI-H23 lung", "TGI", "> 100 µM"],
  ["CCOC(=O)C1=C(C)C2C=C(c3cccs3)CC(c3ccc(Cl)cc3)=C2OC1=O (stereo unspecified)", "NCI-H23 lung", "TGI", "> 100 µM"],
  ["OCC#Cc1ccccc1C#Cc1ccccc1", "NCI-H23 lung", "TGI", "27.6 µM"],
  ["CCOP(=O)(OCC)C(c1ccc(F)cc1)N(C(=O)NC(F)(F)F)c1ccc(OC)cc1 (stereo unspecified)", "NCI-H23 lung", "TGI", "> 100 µM"],
  ["COc1ccc2c(c1)/C(=C\\c1c(Cl)nc3sc(C)cn13)C(=O)N2", "NCI-H23 lung", "TGI", "18.9 µM"],
  ["O=C(CSc1ccc(Cl)cc1)Nc1ccc(-c2nc3ccccc3s2)c(Cl)c1", "NCI-H23 lung", "TGI", "5.56 µM"],
  ["N#CC12C(=O)N=C(N)C1(C#N)C(c1ccco1)NC1=C2CCCC1 (stereo unspecified)", "NCI-H23 lung", "TGI", "> 100 µM"],
  ["O=[N+]([O-])c1ccc(Oc2c(Cl)cc(S(=O)(=O)/N=C(\\NO)Nc3ccc(Cl)cc3)cc2Cl)cc1", "NCI-H23 lung", "TGI", "23.6 µM"],
  ["C[C@@H]1CCC2[C@@H](C)[C@@H](OCC(CO[C@H]3OC4O[C@@]5(C)CC[C@H]6[C@H](C)CCC([C@H]3C)[C@@]46OO5)OC(=O)CCC(=O)O)OC3O[C@@]4(C)CC[C@@H]1[C@]32OO4 (stereo partly specified)", "NCI-H23 lung", "TGI", "11.3 µM"],
  ["NS(=O)(=O)c1cc(Br)c(N=Nc2ccc(O)c3ncccc23)c(Br)c1", "NCI-H23 lung", "TGI", "> 100 µM"],
  ["Cc1ccc(NC(=O)c2cc3cc(N=Nc4ccccc4C(=O)O)ccc3oc2=O)cc1", "NCI-H23 lung", "TGI", "> 100 µM"],
  ["Clc1ccc(C(c2ccc(Cl)cc2)c2ccccn2)cc1", "NCI-H23 lung", "TGI", "> 100 µM"],
  ["C=C1C(=O)O[C@H]2[C@H]1CC/C(COC(=O)c1c[nH]c3ccccc13)=C\\CC[C@@]1(C)O[C@@H]21", "NCI-H23 lung", "TGI", "3.76 µM"],
  ["Cc1cc(/C=C/c2ccc3cc(N(C)C)ccc3[n+]2C)c(C)n1-c1ccccc1", "NCI-H23 lung", "TGI", "1.76 µM"],
  ["N=C(N)SCc1ccc2c(c1)Sc1ccccc1O2", "NCI-H23 lung", "TGI", "21.5 µM"],
  ["O=c1c2sccc2n(CC2COc3ccccc3O2)c(=O)n1O (stereo unspecified)", "NCI-H23 lung", "TGI", "34.4 µM"],
  ["Cc1ccc(S(=O)(=O)Nc2ccccc2C(=O)c2ccc(C)c(C)c2)cc1", "NCI-H23 lung", "TGI", "> 100 µM"],
  ["CC1(C)C2CCC1(C)[C@H](n1c(=O)n([C@@H]3CC4CCC3(C)C4(C)C)c(=O)n([C@@H]3CC4CCC3(C)C4(C)C)c1=O)C2", "NCI-H23 lung", "TGI", "> 100 µM"],
  ["NS(=O)(=O)c1cc(Cl)c(NC(=S)NC(=O)Nc2ccc(Cl)c(Cl)c2)c(Cl)c1", "NCI-H23 lung", "TGI", "> 100 µM"],
  ["CC(C)[C@H]1COC(=O)N1[C@@H]1C(=O)N([C@@H](CCC(=O)N2CCN(C3CCCC3)CC2)C(=O)N[C@@H]2CCCc3ccccc32)[C@@H]1/C=C/c1cccc(Br)c1", "NCI-H23 lung", "TGI", "16.6 µM"],
  ["C[Si](C)(C)C1(Sc2ccccc2)SCCCS1", "NCI-H23 lung", "TGI", "> 100 µM"],
  ["CC1(C)C2CCC(=O)C1CC2 (stereo unspecified)", "NCI-H23 lung", "TGI", "> 100 µM"],
  ["Fc1cc2[nH]ncc2c2c3c(c(-c4cn[nH]c4)nc12)CCCC3", "NCI-H23 lung", "TGI", "4.69 µM"]
]}
